Overview of recorded growth inhibition for various compounds
measurement.notes: NCI Yeast Anticancer Drug Screen. Data for the cln2 rad14 strain (AID 165);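 also: 0% = growth equal to vehicle treated cultures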
condition.details: S. cerevisiae cln2 rad14 strain, at 50.0 µM, active compounds read high
Description: Growth inhibition of yeast strains with defined genetic alterations is measured as a screen for potential anti-cancer activity. Selected strains with alterations in DNA damage repair or cell cycle control were exposed to compounds and growth inhibition was measured relative to vehicle treated controls. The strain used in this assay is cln2 rad14
About 79,000 compounds went through this panel and 15% of them were active in at least one assay; those are over-represented in the sample as a whole. Where a SMILES comes first, the peptide text is derived from it. [ ]: non-standard residue; d: D form. The star is where a group is joined. Cbz = O=C(OCc1ccccc1)*; Dha = C=C(N)C(=O)O
measured.quantity: growth inhibition (%)

compound	unit.abbrev	measured.result
CC(=O)OC1COC([n+]2cccc(C(N)=O)c2)C(OC(C)=O)C1OC(C)=O (stereo not given)	%	-32.6
CSc1ccc(C2=CCCCC2)cc1	%	-15
Cc1ccc(OC(=O)c2ccccc2)cc1CC(Cl)(Cl)Cl	%	-19.3
CC(C)(C)C1CCC2c3c([nH]c4ccccc34)C3C(=O)N(c4cc(Cl)ccc4Cl)C(=O)C3C2C1 (stereo not given)	%	5.4
O=C(O)/C=C/SCc1ccccc1	%	-4.3
CCC(C)(C)N	%	-73.2
O=C1C=C2CCCCCCCC(C1)C2 (stereo not given)	%	-1.75
C=C(NC(=O)CNC(=O)OCc1ccccc1)C(=O)O (Cbz-Gly-[Dha]-OH)	%	-9.85
Cc1cc(NS(=O)(=O)c2ccc(NC(=O)c3ccc(Cl)c4c(Nc5ccc(S(=O)(=O)N=C(N)N)cc5)c5ccccc5nc34)cc2)no1	%	34.5
CNOCc1ccc(C(=O)NC(C)C)cc1	%	-30.9
Fc1ccccc1-c1nc2ccccc2s1	%	-3.45
O=C(O)c1ccccc1SC(Sc1ccccc1C(=O)O)c1ccc(Cl)cc1	%	-11.9
O=C1OC(=O)C(c2ccccc2)=C1c1ccccc1	%	-10.8
Cc1cc(=O)c2cc(N=Cc3ccc(N(C)C)cc3)ccc2o1	%	17.1
c1ccc(Cc2[nH]nc(-c3ccccc3)c2N=Nc2ccccc2)cc1	%	-16.4

* * *

measurement.notes: NCI Yeast Anticancer Drug Screen. Data for the mec2-1 strain (AID 157)
condition.details: S. cerevisiae mec2-1 strain, at 50.0 µM, active compounds read high
The panel holds about 79,000 compounds, 15% with a hit somewhere; the sample as a whole holds those more often. Activity calls are given as the source filed them. Rule as the data show it: active = growth inhibition above about 70%; inactive = the rest.

compound	growth inhibition
COc1ccc([N+](=O)[O-])cc1F	-12.8% (inactive)
CCOc1ccccc1NC(=O)c1c(Br)c(Br)c(Br)c(Br)c1C(=O)O	-16.8% (inactive)
O=[N+]([O-])c1ccc(C=Nc2ccc3c(c2)Cc2ccccc2-3)cc1	-16.8% (inactive)
O=S(=O)(CCS(=O)(=O)c1ccccc1)c1ccccc1	-10.2% (inactive)
c1cc2cc3c4c5c(cc6ccc7cc8cc9c%10c8c8c7c6c5c8c5c%10c(c1C9N1CCOCCOCCOCCOCCOCC1)c2c45)C3 (stereo not drawn)	-2.35% (inactive)
CCn1c(C)nc2ccccc21	-6.55% (inactive)
CCCCNc1nc2nc[nH]c2c(=O)[nH]1	-6.3% (inactive)
c1ccc2c(c1)CSc1ccccc1-2	-8.9% (inactive)
